Attribution: patent US20260232713A1

# assayName: in vitro
# conditionNotes: human
Recorded measurements of CC50, one per entry
Write down the numeric answer in nM and omit the unit.

Tell me CC50 reported for C/C=C/[C@H]1O[C@@](O)([C@@H](C)[C@H](O)[C@H](C)[C@H]2OC(=O)/C(OC)=C/C(C)=C/[C@@H](C)[C@@H](O)[C@@H](C)[C@@H](O)[C@H](C)C/C(C)=C/C=C/[C@@H]2OC)C[C@@H](O[C@@H]2C[C@H](OC(C)=O)[C@@H](OC(N)=O)[C@H](C)O2)[C@@H]1C [Compound 12, 3′-Acetyl Concanamycin B]
5.3

Identify CC50 associated with the molecule C=CC(C)C(OC(=O)[C@@H](C)[C@H](O)[C@H](C)[C@H]1OC(=O)/C(OC)=C/C(C)=C/[C@@H](C)[C@@H](O)[C@@H](C)C/C(C)=C/C=C/[C@@H]1OC)C(C)C (some centres unmarked) [Compound S8]
520
